Each entry below lists one item and its recorded % Variation: increase of the intragastric pH value.
Tested on: gastric secretion
experimental.details: gastric secretion by ligature of the pylorus using Shay's technique, male Sprague-Dawley rats
Assay type: in vivo
protocol.conditions: rat, intraduodenal route, 50 mg/kg, acute
Description: 1. […] Acute treatment by intraduodenal route in a dose of 50 mg/kg.
Please respond with the number in % and leave the unit unwritten.

Some molecules with known % Variation: increase of the intragastric pH results, for comparison:
| molecule | units.text | reported.value |
| --- | --- | --- |
| CNC(=NCCSCc1nc[nH]c1C)NC#N [Cimetidine, reference compound] | % | 90 |
| CN(C(=O)CSc1ncc[nH]1)c1ccc(Cl)cc1C(=O)c1ccccc1Cl | % | 118 |
| CN(C(=O)CSc1ncc[nH]1)c1ccc(Cl)cc1C(=O)c1ccccc1 | % | 181 |

Return % Variation: increase of the intragastric pH measured with gastric secretion given this molecule: "CN(C(=O)CSC(=N)N)c1ccc(Cl)cc1C(=O)c1ccccc1Cl"
153
